target: human PAH with the R408W mutation (A375 R408W cells) (Homo sapiens, UniProt P00439, R408W); construct: expressed in transfected cells; assay: Cell Based Phenylalanine Flux Assay; conditions: A375 R408W cells; 24 hrs with compound, then 20 μM sepiapterin and 800 μM 13C9,15N-Phenylalanine for 4 hours; 13C-Tyrosine by LC-MS; average where tested multiple times
Parameter AC50: see the listing below.

| COMPOUND | AC50 |
| --- | --- |
| FC(F)(F)c1nnc(N2Cc3[nH]cnc3[C@H]2c2nc3ccccc3o2)o1 | 1000 to 5000 nM |
| Cc1cccc2oc([C@@H]3c4nc[nH]c4CCN3C(=O)c3cnco3)nc12 | ≤ 500 nM |
| O=C(CCc1cncs1)N1CCc2[nH]cnc2[C@@H]1c1nc2cccc(F)c2o1 | 1000 to 5000 nM |
| Cc1ccc2oc([C@@H]3c4nc[nH]c4CCN3C(=O)c3ncnn3C)nc2c1 | 500 to 1000 nM |
| COc1cc(F)cc2nc([C@H]3c4nc[nH]c4CCN3C(=O)c3ocnc3C(F)F)oc12 | 500 to 1000 nM |
| O=C(c1nnc(-c2ccc(F)c(F)c2)o1)N1CCc2[nH]cnc2[C@H]1c1nc2cc(F)ccc2o1 | 500 to 1000 nM |
| O=C(c1ccnn1C(F)F)N1CCc2[nH]cnc2[C@H]1c1nc2cccc(F)c2o1 | ≤ 500 nM |
| O=C(c1ocnc1C(F)F)N1CCc2[nH]cnc2[C@@H]1c1nc2ccc(Br)cc2o1 | 500 to 1000 nM |
| CC(C)n1ncnc1C(=O)N1CCc2[nH]cnc2[C@@H]1c1nc2cccc(F)c2o1 | 500 to 1000 nM |
| O=C(c1oc(C2(O)CC2)nc1C(F)F)N1CCc2[nH]cnc2[C@@H]1c1nc2cc(F)ccc2o1 | 1000 to 5000 nM |
| Cc1cccc2nc([C@@H]3c4nc[nH]c4CCN3C(=O)c3ccnn3C(F)F)oc12 | ≤ 500 nM |
| Cc1c(F)ccc2oc([C@H]3c4nc[nH]c4CCN3C(=O)c3ocnc3C(F)F)nc12 | 1000 to 5000 nM |
| O=C(c1nnc(-c2ccn(C(F)F)n2)o1)N1CCc2[nH]cnc2[C@@H]1c1nc2c(F)ccc(F)c2o1 [Example 815] | 500 to 1000 nM |
| Cc1cccc2oc([C@@H]3c4nc[nH]c4CCN3C(=O)c3cnn4cc(N5CCC(O)CC5)ccc34)nc12 | ≤ 500 nM |
| O=C(c1ocnc1C(F)F)N1CCc2[nH]cnc2[C@@H]1c1nc2c(C(F)(F)F)cccc2o1 | 500 to 1000 nM |
| O=C(c1cnn2cc(N3CCC4(CC3)CC4)ccc12)N1CCc2[nH]cnc2[C@@H]1c1nc2cccc(F)c2o1 | 1000 to 5000 nM |
| CC(F)(F)c1ncoc1C(=O)N1CCc2[nH]cnc2[C@@H]1c1nc2ccc(F)cc2o1 | 500 to 1000 nM |
| Cn1ccc(-c2nnc(C(=O)N3CCc4[nH]cnc4[C@@H]3c3nc4cccc(C(F)(F)F)c4o3)o2)n1 | 500 to 1000 nM |
| Cn1cc(-c2nc(C(F)F)c(C(=O)N3CCc4[nH]cnc4[C@H]3c3nc4cccc(F)c4o3)o2)cn1 | ≤ 500 nM |
| O=C(c1ocnc1C(F)F)N1CCc2[nH]cnc2[C@H]1c1nc2ccc(F)c(F)c2o1 | ≤ 500 nM |
| O=C(c1nnc(-c2ccn(C(F)F)n2)o1)N1CCc2[nH]cnc2[C@H]1c1nc2cc(F)ccc2o1 | 1000 to 5000 nM |
| O=C(c1ocnc1C(F)(F)F)N1CCc2[nH]cnc2[C@@H]1c1nc2ccc(Br)cc2o1 | ≤ 500 nM |
| Cc1ccc2nc([C@@H]3c4nc[nH]c4CCN3C(=O)c3ccnn3C(F)F)oc2c1 | ≤ 500 nM |
| Cc1nc([C@H](C)O)oc1C(=O)N1CCc2[nH]cnc2[C@H]1c1nc2ccc(F)cc2o1 | 1000 to 5000 nM |
| COCc1ccc2c(C(=O)N3CCc4[nH]cnc4[C@H]3c3nc4cc(C)ccc4o3)cnn2c1 | 1000 to 5000 nM |
| O=C(c1oc(-c2cncnc2)nc1C(F)F)N1CCc2[nH]cnc2[C@@H]1c1nc2cc(F)ccc2o1 | 500 to 1000 nM |
| COc1cccc2nc([C@@H]3c4nc[nH]c4CCN3C(=O)c3ccnn3C(C)C)oc12 | ≤ 500 nM |
| CC(C)(O)c1nc(C(F)F)c(C(=O)N2CCc3[nH]cnc3[C@H]2c2nc3c(F)cccc3o2)o1 | ≤ 500 nM |
| Cn1cc(-c2nnc(C(=O)N3CCc4[nH]cnc4[C@H]3c3nc4c(F)ccc(F)c4o3)o2)cn1 | ≤ 500 nM |
| Cn1cc(-c2nnc(C(=O)N3CCc4[nH]cnc4[C@H]3c3nc4c(F)cc(F)cc4o3)o2)cn1 | 500 to 1000 nM |
| O=C(c1oc(-c2ccccn2)nc1C(F)(F)F)N1CCc2[nH]cnc2[C@@H]1c1nc2cccc(F)c2o1 | ≤ 500 nM |

---

target: human PAH with the R408W mutation (A375 R408W cells) (Homo sapiens, UniProt P00439, R408W); construct: expressed in transfected cells; assay: Cell Based Phenylalanine Flux Assay; conditions: A375 R408W cells; 24 hrs with compound, then 20 μM sepiapterin and 800 μM 13C9,15N-Phenylalanine for 4 hours; 13C-Tyrosine by LC-MS; average where tested multiple times
VALUE TYPE: AC50

| SMILES NOTATION | RESULT |
| --- | --- |
| O=C(c1ocnc1C(F)F)N1CCc2[nH]cnc2[C@@H]1c1nc2cc(OC(F)(F)F)ccc2o1 | ≤ 0.5 µM |
| O=C(c1nnc(-c2ncccc2F)o1)N1CCc2[nH]cnc2[C@@H]1c1nc2ccccc2o1 | 0.5 to 1 µM |
| Cc1nc([C@H](C)O)oc1C(=O)N1CCc2[nH]cnc2[C@H]1c1nc2cccc(F)c2o1 | 0.5 to 1 µM |
| O=C(c1oc(-c2ncccn2)nc1C(F)F)N1CCc2[nH]cnc2[C@H]1c1nc2cc(F)ccc2o1 | 1 to 5 µM |
| Cn1cncc1-c1nc(C(F)(F)F)c(C(=O)N2CCc3[nH]cnc3[C@H]2c2nc3cc(F)ccc3o2)o1 | 0.5 to 1 µM |
| COc1ccc2oc([C@@H]3c4nc[nH]c4CCN3C(=O)c3nnc(-c4ccccn4)o3)nc2c1 | 0.5 to 1 µM |
| Cc1cccc2oc([C@H]3c4nc[nH]c4CCN3C(=O)c3nnc(-c4cnn(C)c4)o3)nc12 | 0.5 to 1 µM |

---

Target: human PAH with the R408W mutation (A375 R408W cells) (Homo sapiens, UniProt P00439, R408W)
Construct: expressed in transfected cells
Sequence (P00439 1-452 R408W): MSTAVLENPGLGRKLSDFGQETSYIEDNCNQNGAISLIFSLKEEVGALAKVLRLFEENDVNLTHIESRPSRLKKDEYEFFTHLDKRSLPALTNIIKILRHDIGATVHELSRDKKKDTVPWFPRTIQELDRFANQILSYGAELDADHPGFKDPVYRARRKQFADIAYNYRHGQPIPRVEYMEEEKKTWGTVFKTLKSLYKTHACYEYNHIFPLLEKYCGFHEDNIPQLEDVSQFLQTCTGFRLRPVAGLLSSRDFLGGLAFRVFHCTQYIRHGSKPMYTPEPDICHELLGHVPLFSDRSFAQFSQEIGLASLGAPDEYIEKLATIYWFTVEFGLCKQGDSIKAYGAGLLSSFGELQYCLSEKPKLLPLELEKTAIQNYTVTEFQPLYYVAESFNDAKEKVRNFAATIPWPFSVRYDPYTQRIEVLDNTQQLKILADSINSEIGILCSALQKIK
Experiment: Cell Based Phenylalanine Flux Assay
Settings: A375 cells expressing R408W PAH; 24 hrs with compound, then 20 μM sepiapterin and 800 μM 13C9,15N-Phenylalanine for 4 hours; 13C-Tyrosine by LC-MS; average where tested multiple times
Parameter AC50: see the listing below.

| COMPOUND | AC50 |
| --- | --- |
| COc1ccc2oc(C3c4nc[nH]c4CCN3C(=O)c3nc(C)nn3C)nc2c1 (stereo not drawn) | 1 to 5 µM |
| O=C(CCc1nccs1)N1CCc2[nH]cnc2C1c1nc2ccc(Br)cc2o1 (stereo not drawn) | ≥ 5 µM |
| O=C(c1nnc(-c2cn[nH]c2)o1)N1CCc2[nH]cnc2C1c1nc2ccc(F)cc2o1 (stereo not drawn) | 1 to 5 µM |
| COc1ccc2oc(C3c4nc[nH]c4CCN3C(=O)c3cnco3)nc2c1 (stereo not drawn) | ≥ 5 µM |
| CC(C)(O)c1ncc(C(=O)N2CCc3[nH]cnc3C2c2nc3c(F)cc(F)cc3o2)o1 (stereo not drawn) | 1 to 5 µM |
| CC(C)(O)c1nc(C(F)F)c(C(=O)N2CCc3[nH]cnc3C2c2nc3cc(F)ccc3o2)s1 (stereo not drawn) | 1 to 5 µM |
